Collected residual activity values appear next to each entry.
# measurementTarget: BRSK1 (human) (UniProt Q8TDC3)
# Sequence (Q8TDC3 whole entry, looked up): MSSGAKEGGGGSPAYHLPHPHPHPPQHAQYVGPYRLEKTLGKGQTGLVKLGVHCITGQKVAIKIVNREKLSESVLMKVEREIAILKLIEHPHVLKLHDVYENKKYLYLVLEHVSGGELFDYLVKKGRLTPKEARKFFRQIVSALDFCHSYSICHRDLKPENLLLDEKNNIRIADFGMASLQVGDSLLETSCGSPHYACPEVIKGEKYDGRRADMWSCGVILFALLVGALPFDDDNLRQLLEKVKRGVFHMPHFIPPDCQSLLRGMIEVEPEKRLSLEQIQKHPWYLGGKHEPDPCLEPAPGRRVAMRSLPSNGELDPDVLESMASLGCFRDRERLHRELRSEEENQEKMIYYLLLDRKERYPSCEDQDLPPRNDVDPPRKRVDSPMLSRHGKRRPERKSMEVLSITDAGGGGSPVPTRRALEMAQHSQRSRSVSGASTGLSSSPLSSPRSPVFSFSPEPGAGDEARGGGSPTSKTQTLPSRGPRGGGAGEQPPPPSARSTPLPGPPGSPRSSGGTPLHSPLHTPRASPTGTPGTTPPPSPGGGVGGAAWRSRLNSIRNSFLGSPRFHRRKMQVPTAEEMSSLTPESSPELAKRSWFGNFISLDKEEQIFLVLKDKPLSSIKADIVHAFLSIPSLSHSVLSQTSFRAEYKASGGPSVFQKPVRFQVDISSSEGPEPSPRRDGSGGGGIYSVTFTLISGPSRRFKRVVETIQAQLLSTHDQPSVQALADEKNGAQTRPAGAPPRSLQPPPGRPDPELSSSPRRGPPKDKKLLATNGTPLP
# methodSummary: radiometric filter-binding kinase assay, Kinase HotSpot
# conditionContext: compound 0.5 µM; ATP 10 µM
Give the quantity in %, number only.

>>> datavalue("CCN(CC)CCNC(=O)c1c(C)[nH]c(/C=C2\\C(=O)Nc3ccc(Cl)cc32)c1C")
36.5

// below: residual activity requested for another compound
# residual activity of CCOC(=O)c1c(C)[nH]c(/C=C2\C(=O)Nc3ccccc32)c1C = 92.6

* * *

# measurementTarget: LTK (human) (UniProt P29376)
# Sequence (P29376 whole entry, looked up): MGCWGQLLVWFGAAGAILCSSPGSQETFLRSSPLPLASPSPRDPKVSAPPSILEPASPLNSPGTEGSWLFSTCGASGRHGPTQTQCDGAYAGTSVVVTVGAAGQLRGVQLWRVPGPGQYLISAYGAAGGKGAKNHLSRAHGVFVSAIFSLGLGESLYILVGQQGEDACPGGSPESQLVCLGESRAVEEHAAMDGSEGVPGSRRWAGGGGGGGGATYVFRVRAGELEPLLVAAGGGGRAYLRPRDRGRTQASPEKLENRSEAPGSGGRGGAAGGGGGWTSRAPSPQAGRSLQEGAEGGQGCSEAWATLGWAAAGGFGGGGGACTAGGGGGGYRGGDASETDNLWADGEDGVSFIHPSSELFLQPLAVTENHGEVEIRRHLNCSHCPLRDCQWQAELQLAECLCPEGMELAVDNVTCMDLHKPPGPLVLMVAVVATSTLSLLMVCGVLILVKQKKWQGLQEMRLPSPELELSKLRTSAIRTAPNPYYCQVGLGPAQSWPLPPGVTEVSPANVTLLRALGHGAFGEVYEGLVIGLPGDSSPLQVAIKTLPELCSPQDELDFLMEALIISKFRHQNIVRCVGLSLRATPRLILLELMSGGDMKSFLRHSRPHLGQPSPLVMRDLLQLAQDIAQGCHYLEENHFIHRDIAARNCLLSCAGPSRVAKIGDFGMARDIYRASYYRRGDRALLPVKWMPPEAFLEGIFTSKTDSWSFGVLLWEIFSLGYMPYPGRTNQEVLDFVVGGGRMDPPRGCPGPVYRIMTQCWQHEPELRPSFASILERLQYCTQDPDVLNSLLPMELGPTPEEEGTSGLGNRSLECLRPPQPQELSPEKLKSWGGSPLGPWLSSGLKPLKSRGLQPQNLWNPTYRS
# methodSummary: radiometric filter-binding kinase assay, Kinase HotSpot
# conditionContext: compound 0.5 µM; ATP 10 µM
Measured residual activity of individual entries
The response must be a number in % with no trailing unit.

>>> datavalue("CCN(CC)CCNC(=O)c1c(C)[nH]c(/C=C2\\C(=O)Nc3ccc(Cl)cc32)c1C")
11.6
>>> datavalue("CO[C@H]1[C@@H](OC)C[C@H](C)[C@@H](OC)C2=CC(=O)C=C(NC(=O)/C(C)=C\\C=C/[C@H](OC)[C@@H](OC(N)=O)/C(C)=C\\[C@@H]1C)C2=O")
98.5
>>> datavalue("CC(=O)c1ccc(N2CCOCC2)cc1O")
102
>>> datavalue("CNc1cc2c(Nc3cccc(Br)c3)ncnc2cn1")
76.2
>>> datavalue("CNC(=O)c1cc(Oc2ccc(NC(=O)Nc3ccc(Cl)c(C(F)(F)F)c3)cc2)ccn1")
99.9
>>> datavalue("Nc1ncnc2[nH]nc(Nc3ccc(F)cc3)c12")
92.5

# residual activity of CCN(CC)C(=O)c1ccc(Nc2nc(OCC3CCCCC3)c3nc[nH]c3n2)cc1 = 66.1

Form field residual activity, entry O=C1NC(=O)c2c1c1c3ccccc3n3c1c1c2c2ccccc2n1C1CCC3O1 : 21.8

Entry under test: COc1ccc(COc2ccc(Cc3cnc(N)nc3N)cc2OC)cc1 . Its residual activity was 100

The reported value for CO[C@H]1CC2CC[C@@H](C)[C@@](O)(O2)C(=O)C(=O)N2CCCC[C@H]2C(=O)OC([C@H](C)C[C@@H]2CC[C@@H](O)[C@H](OC)C2)CC(=O)[C@H](C)/C=C(\C)[C@@H](O)[C@@H](OC)C(=O)[C@H](C)C[C@H](C)/C=C/C=C/C=C/1C (stereo not given in full) in terms of residual activity is 107
